assay: Total plasma concentration in histamine induced C57BL/6 mouse model of scratching at 20 mg/kg, po pretreated for 120 mins followed by histamine-challenge measured after 30 mins; assay type: ADME, organism-based
Measured Property: concentration at 0.5 h (µM)
Write the value in µM as a bare number.

Ask: I'd like to know its concentration at 0.5 h. The compound in question is "COc1cc(C(F)(F)F)ccc1-c1ncnc2cc(S(=O)(=O)Nc3nccs3)ccc12"
Reply: 22

* * *

target: Sodium channel protein type 9 subunit alpha (Mus musculus); assay: Inhibition of 20% inactivated Nav1.7 in C57BL/6 mouse DRG neurons assessed as inhibition of sodium currents in presence of TTX by whole cell patch clamp assay
Measured Property: IC50 (nM)
Write the value in nM as a bare number.

Ask: Entry "COc1cc(C(F)(F)F)ccc1-c1ncnc2cc(S(=O)(=O)Nc3nccs3)ccc12" , system Sodium channel protein type 9 subunit alpha (Mus musculus): what IC50 was measured?
Reply: 130

* * *

target: Sodium channel protein type 8 subunit alpha (Homo sapiens); experiment: Inhibition of 20% inactivated human Nav1.6 expressed in HEK293 cells assessed as inhibition of peak inward current by whole cell patch clamp method
Measured Property: IC50 (µM)
Write the value in µM as a bare number.

Ask: I'd like to know its IC50. The molecule in question is "COc1cc(C(F)(F)F)ccc1-c1ncnc2cc(S(=O)(=O)Nc3nccs3)ccc12"
Reply: 3.7

* * *

molecular target: Sodium channel protein type 9 subunit alpha (Mus musculus); experiment: Inhibition of 20% inactivated mouse Nav1.7 expressed in HEK293 cells assessed as inhibition of sodium current measured for 3 to 5 mins by whole cell voltage clamp method; type: cell-based
Measured Property: IC50 (nM)
Write the value in nM as a bare number.

Ask: Entry "COc1cc(C(F)(F)F)ccc1-c1ncnc2cc(S(=O)(=O)Nc3nccs3)ccc12" , system Sodium channel protein type 9 subunit alpha (Mus musculus): what IC50 was measured?
Reply: 180

* * *

test: Total plasma concentration in histamine induced C57BL/6 mouse model of scratching at 5 mg/kg, po pretreated for 120 mins followed by histamine-challenge measured after 30 mins; format: ADME, organism-based
Measured Property: concentration at 0.5 h (µM)
Write the value in µM as a bare number.

Ask: I'd like to know its concentration at 0.5 h. The compound in question is "COc1cc(C(F)(F)F)ccc1-c1ncnc2cc(S(=O)(=O)Nc3nccs3)ccc12"
Reply: 3.1

* * *

biological target: Sodium channel protein type 3 subunit alpha (Homo sapiens); test: Inhibition of 20% inactivated human Nav1.3 expressed in CHO cells assessed as inhibition of peak inward current by whole cell patch clamp method
Sequence (Q9NY46 whole entry): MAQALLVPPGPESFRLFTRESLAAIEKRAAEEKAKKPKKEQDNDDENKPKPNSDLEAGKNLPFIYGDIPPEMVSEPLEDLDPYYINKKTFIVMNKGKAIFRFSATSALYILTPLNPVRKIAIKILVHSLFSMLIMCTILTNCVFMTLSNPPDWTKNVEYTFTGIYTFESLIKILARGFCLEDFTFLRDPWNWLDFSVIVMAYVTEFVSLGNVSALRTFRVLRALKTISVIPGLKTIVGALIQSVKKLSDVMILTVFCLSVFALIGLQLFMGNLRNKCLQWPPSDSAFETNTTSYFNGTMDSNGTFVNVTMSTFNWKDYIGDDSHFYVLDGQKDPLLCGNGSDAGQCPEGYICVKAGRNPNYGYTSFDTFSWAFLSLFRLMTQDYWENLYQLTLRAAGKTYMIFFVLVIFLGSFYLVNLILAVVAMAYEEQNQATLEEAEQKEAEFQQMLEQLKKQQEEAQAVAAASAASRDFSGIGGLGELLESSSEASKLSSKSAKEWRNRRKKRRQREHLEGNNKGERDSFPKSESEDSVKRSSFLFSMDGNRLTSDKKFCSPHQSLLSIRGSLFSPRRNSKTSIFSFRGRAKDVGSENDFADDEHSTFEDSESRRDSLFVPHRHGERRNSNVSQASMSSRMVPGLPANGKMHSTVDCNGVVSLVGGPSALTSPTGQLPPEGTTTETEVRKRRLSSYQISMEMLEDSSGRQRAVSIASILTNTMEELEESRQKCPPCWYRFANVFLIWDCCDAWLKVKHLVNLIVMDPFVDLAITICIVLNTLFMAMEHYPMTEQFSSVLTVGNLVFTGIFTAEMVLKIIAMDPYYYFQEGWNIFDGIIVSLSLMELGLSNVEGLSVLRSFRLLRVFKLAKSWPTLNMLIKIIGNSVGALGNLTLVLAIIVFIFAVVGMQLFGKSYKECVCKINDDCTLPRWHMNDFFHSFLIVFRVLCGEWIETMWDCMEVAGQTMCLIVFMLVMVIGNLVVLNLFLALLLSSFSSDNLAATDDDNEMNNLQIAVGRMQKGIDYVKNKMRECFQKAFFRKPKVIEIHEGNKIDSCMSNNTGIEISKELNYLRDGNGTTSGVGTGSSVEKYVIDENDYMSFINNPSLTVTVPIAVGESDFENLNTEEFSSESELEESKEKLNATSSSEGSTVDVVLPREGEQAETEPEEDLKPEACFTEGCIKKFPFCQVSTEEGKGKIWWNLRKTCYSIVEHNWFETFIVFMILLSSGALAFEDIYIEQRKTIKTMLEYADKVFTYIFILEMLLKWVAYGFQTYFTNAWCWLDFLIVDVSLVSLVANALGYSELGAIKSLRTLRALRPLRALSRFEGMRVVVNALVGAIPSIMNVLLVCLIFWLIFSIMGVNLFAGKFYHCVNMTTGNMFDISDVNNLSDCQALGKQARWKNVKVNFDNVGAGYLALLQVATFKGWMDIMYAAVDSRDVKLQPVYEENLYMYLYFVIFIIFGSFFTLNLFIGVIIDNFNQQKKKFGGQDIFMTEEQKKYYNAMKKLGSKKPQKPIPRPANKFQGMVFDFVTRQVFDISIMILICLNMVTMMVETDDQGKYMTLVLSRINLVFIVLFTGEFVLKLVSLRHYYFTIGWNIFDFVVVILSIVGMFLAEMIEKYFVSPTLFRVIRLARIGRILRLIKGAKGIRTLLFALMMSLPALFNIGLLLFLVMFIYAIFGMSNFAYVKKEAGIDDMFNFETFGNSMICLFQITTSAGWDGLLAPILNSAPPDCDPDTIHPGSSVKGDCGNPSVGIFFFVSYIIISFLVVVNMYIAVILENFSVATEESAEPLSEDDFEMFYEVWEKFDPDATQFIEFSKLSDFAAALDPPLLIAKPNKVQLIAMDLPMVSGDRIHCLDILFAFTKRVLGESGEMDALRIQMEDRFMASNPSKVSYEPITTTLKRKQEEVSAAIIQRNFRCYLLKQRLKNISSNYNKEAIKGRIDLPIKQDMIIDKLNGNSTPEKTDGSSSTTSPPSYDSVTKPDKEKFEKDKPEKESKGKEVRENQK
Measured Property: pIC50
By convention, pIC50 is the negative base-10 log of a molar concentration.

Ask: I'd like to know its pIC50. The molecule in question is "COc1cc(C(F)(F)F)ccc1-c1ncnc2cc(S(=O)(=O)Nc3nccs3)ccc12"
Reply: 4.68

* * *

test: Fraction unbound in dog plasma at 5 uM by LC-MS/MS analysis; type: ADME, cell-free, Canis lupus familiaris
Measured Property: fraction unbound at 5 µM
Write the number on its own, no unit after it.

Ask: I'd like to know its fraction unbound at 5 µM. The compound in question is "COc1cc(C(F)(F)F)ccc1-c1ncnc2cc(S(=O)(=O)Nc3nccs3)ccc12"
Reply: 0.014

* * *

molecular target: Sodium channel protein type 9 subunit alpha (Rattus norvegicus, UniProt O08562); assay: Inhibition of 20% inactivated rat Nav1.7 expressed in HEK293T cells assessed as inhibition of sodium current measured for 3 to 5 mins by whole cell voltage clamp method
Sequence (O08562 whole entry): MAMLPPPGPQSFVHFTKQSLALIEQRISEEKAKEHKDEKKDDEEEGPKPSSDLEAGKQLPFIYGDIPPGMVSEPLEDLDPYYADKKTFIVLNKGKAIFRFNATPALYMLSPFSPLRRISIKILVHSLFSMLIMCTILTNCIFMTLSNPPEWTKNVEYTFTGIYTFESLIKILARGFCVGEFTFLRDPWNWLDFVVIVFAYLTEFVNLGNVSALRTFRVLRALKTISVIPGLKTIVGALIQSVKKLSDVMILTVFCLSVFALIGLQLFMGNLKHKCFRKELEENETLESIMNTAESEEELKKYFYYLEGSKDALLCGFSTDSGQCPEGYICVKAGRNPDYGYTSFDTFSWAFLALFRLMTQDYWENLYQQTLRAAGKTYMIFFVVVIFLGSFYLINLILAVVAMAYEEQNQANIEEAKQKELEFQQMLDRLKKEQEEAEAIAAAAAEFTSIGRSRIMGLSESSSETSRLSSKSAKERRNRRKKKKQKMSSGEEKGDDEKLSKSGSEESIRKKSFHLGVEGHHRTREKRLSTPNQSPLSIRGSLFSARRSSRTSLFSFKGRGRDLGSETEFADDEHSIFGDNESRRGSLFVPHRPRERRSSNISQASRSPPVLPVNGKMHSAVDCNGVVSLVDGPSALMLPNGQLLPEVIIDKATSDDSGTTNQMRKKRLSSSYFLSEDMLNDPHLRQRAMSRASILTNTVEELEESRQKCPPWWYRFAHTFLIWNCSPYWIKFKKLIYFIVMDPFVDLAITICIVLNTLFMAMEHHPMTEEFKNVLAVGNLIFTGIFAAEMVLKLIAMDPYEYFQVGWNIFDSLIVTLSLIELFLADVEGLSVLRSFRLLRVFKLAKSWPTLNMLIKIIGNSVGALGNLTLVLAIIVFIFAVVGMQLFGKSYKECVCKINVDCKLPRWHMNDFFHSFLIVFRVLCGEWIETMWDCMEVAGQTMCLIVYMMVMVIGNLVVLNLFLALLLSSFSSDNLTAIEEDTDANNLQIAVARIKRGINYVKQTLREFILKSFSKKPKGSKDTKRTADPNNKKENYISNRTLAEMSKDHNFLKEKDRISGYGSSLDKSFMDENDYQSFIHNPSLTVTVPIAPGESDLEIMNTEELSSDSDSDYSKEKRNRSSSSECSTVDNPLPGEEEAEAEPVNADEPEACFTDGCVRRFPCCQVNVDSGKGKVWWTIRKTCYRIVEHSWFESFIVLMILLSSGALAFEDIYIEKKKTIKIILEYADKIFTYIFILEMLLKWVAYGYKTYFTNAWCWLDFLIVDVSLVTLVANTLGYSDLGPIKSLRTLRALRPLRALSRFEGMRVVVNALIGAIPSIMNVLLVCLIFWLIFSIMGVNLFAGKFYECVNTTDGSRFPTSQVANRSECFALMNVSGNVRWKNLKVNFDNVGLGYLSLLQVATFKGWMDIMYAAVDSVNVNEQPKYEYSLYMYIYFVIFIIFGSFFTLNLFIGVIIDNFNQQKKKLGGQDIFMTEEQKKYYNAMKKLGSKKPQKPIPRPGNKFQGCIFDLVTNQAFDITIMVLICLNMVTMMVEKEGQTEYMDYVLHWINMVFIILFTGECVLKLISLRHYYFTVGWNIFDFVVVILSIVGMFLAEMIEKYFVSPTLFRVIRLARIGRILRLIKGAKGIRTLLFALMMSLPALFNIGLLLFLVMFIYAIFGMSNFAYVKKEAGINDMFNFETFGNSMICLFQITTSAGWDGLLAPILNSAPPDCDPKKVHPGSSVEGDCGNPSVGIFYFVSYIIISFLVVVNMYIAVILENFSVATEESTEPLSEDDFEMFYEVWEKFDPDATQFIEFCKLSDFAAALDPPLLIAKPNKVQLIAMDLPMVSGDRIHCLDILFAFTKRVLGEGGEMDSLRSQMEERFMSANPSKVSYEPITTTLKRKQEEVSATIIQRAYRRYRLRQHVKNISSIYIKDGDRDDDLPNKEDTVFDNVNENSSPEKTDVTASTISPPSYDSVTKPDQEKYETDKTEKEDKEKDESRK
Measured Property: IC50 (µM)
Write the value in µM as a bare number.

Ask: I'd like to know its IC50. The molecule in question is "COc1cc(C(F)(F)F)ccc1-c1ncnc2cc(S(=O)(=O)Nc3nccs3)ccc12"
Reply: 3.5
